Tested on: Nrf2
assay.procedure: Nrf2 induction, luciferase assay in AREc32 cells
Assay type: cell-based
experimental.setup: Arec32, 24 h, read-out: CD (concentration that doubles luciferase activity)
Could you label it Y if measured EC (2-fold luciferase activity) is 20 µM or higher, and N otherwise?

smiles.repr | assigned.label
COC(=O)C1=C(C)N(CCc2ccccc2)C(=O)/C1=C\c1cc(OC)c(OC)cc1OC | Y
COC(=O)C1=C(C)N(CCc2ccccc2)C(=O)/C1=C\c1ccc(OC)c(O)c1 | Y
COC(=O)C1=C(C)N(CCc2ccccc2)C(=O)/C1=C\c1ccc(OCc2ccccc2F)c(OC)c1 | N
COC(=O)C1=C(C)N(CCc2ccccc2)C(=O)/C1=C\c1ccc(O)c(O)c1 | N
COC(=O)C1=C(C)N(CCc2ccc(OC)c(OC)c2)C(=O)/C1=C\c1ccc(OCc2ccccc2Cl)c(OC)c1 | N
COC(=O)C1=C(C)N(Cc2ccccc2)C(=O)/C1=C\c1ccc(Cl)cc1 | N

----------
subject.of.test: AChE (Electrophorus electricus) (Electrophorus electricus, UniProt O42275)
Sequence (O42275 24-633): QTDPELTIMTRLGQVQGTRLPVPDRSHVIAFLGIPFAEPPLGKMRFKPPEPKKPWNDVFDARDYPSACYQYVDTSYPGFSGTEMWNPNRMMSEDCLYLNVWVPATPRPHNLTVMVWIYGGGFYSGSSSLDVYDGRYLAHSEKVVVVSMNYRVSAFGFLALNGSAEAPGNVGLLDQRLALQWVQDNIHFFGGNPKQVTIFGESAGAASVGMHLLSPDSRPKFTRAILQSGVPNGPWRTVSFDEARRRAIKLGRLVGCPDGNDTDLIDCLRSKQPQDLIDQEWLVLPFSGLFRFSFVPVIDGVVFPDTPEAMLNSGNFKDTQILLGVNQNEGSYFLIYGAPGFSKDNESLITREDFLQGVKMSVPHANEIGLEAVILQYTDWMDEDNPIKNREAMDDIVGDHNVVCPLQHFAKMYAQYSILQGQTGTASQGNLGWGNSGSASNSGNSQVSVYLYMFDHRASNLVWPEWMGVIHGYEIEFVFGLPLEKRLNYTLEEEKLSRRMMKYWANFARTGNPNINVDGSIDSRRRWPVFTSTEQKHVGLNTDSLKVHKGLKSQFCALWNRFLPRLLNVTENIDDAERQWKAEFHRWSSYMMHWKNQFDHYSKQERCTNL
assay.procedure: Acetylcholinesterase inhibition (Ellman's method)
Format: biochemical
experimental.setup: 10 μM compound; read-out: % Inhibition of EeAChE at 10 μM
Form field: inhibition at 10 µM (one value per entry).
measurement.type: inhibition at 10 µM (%)

smiles.repr | data.value
COC(=O)C1=C(C)N(CCc2ccccc2)C(=O)/C1=C\c1cc(OC)c(OC)cc1OC | 29.3
COC(=O)C1=C(C)N(Cc2ccccc2)C(=O)/C1=C\c1ccc(OC)cc1 | 36.7
COC(=O)C1=C(C)N(CCc2ccccc2)C(=O)/C1=C\c1ccc(O)c(O)c1 | 27.2
COC(=O)C1=C(C)N(CCc2ccccc2)C(=O)/C1=C\c1c[nH]c2ccccc12 | 39.8
COC(=O)C1=C(C)N(CCc2ccccc2)C(=O)/C1=C\c1ccc(OCc2ccccc2Cl)c(OC)c1 | 40.1
COC(=O)C1=C(C)N(CCc2ccc(OC)c(OC)c2)C(=O)/C1=C\c1ccc(OCc2ccc(Cl)cc2)c(OC)c1 | 31.8
COC(=O)C1=C(C)N(CCc2ccccc2)C(=O)/C1=C\c1ccc(OCc2ccc(Cl)cc2)c(OC)c1 | 26.2
COC(=O)C1=C(C)N(CCc2ccccc2)C(=O)/C1=C\c1ccc(OC)c(O)c1 | 24.2
